molecular target: monoclonal antibody (mAb) to detect Aβ42-derived peptide species with free N-terminus (generated in Example 1); experiment: competition ELISA: soluble peptide against plate-bound DAEFRH-C-BSA for the biotinylated mAb, FIG. 8
OUTCOME MEASURE: IC50

AYEFRHC [Peptide 4036 AYEFRH] ... > 0.5 mg/L
DAELRYC [Peptide 4031 DAELRY] ... < 0.5 mg/L
GKEFRTC [Peptide 4035 GKEFRT] ... < 0.5 mg/L
SLEFRFC [Peptide 4033 SLEFRF] ... < 0.5 mg/L
GPEFRWC [Peptide 4034 GPEFRW] ... < 0.5 mg/L

Let us move to another entry and its IC50.
[Q] For the binder DWELRQC [Peptide 4032 DWELRQ] , what IC50 is on record?
[A] < 0.5 mg/L

Source: patent US20090004210A1
